molecular target: Aldehyde dehydrogenase, mitochondrial (Homo sapiens); experiment: qHTS for Inhibitors of the Aldehyde Dehydrogenase Family (ALDH2) Primary screen (AID 2061308); details: ALDH2 enzyme inhibition qHTS, 1536-well; series mostly up to 56 µM;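 note: plate controls were vehicle for no effect and reference inhibitor for full effect; nearly all actives have a fitted effect of over 55% in size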
Records with an inconclusive call do not appear. Calls of active or inactive are those of the source. Calls come from the whole dose curve; as a rule, active = well fitted inhibition curve with a large enough effect; inconclusive = small, poorly fitted or top-dose-only effect; inactive = flat fitted curve, though single readings scatter.
parameter: activity change, negative = inhibition

{"compound": "COc1ccc(C2Nc3ccccc3C(=O)N2Cc2ccccc2C(F)(F)F)cc1COc1ccc(NC(C)=O)cc1 (centres undefined)", "result": "inactive"}
{"compound": "C=CC(C)(O)CC[C@H]1C(=C)CCC2[C@](C)(C(=O)O)CCC[C@@]21C (some centres undefined)", "result": "inactive"}
{"compound": "C[C@H](Oc1cc(-c2cnn(C3CCNCC3)c2)cnc1N)c1c(Cl)ccc(F)c1Cl", "result": "inactive"}
{"compound": "CCOC(=O)c1csc(Nc2ccc(Cl)cc2)n1", "result": "inactive"}
{"compound": "Cc1nc(N)ncc1-c1nc(N2CCOCC2)c2sc(C(C)(C)O)cc2n1", "result": "inactive"}
{"compound": "CC1(C)CCCC2(C)C1C(O)C=C(CO)C2(O)CO (centres undefined)", "result": "inactive"}

Provide the reported activity change, negative = inhibition of each entry below, same order.
1. COc1cc(N2CCC(N3CCN(C)CC3)CC2)ccc1Nc1ncc(Cl)c(-c2c[nH]c3ccccc23)n1
2. CC[C@H]1OC(=O)[C@H](C)C(=O)[C@H](C)[C@@H](OC2O[C@H](C)C[C@H](N(C)C)[C@H]2O)[C@@H](C)C[C@@H](C)C(=O)/C=C/[C@]1(C)O (some centres undefined)
3. CC1(C)CC[C@]2(C(=O)O[C@@H]3O[C@H](CO)[C@@H](O)[C@H](O)[C@H]3O)CC[C@]3(C)C(=CCC4[C@@]5(C)C[C@@H](O)[C@H](O)[C@@](C)(CO)C5CC[C@]43C)C2[C@@H]1O (some centres undefined)

1: inactive; 2: inactive; 3: inactive

----------
experiment: BET inhibitor-based combinations targeting novel dependencies in MECOM-rearranged (r) AML: AML-191 cell line (AID 2202236; note: nearly all actives have a fitted effect of over 35% in size); conditions: AML-191 viability, CellTiter-Glo luminescence, 48 h; series mostly up to 46 µM
Inconclusive results are not listed. Calls of active or inactive are those of the source. Calls come from the whole dose curve; as a rule, active = well fitted inhibition curve with a large enough effect; inconclusive = small, poorly fitted or top-dose-only effect; inactive = flat fitted curve, though single readings scatter.
One label from this list, please: yes (1) = active, no (0) = inactive

{"compound": "Cc1ccccc1N1C(=O)c2cc(S(N)(=O)=O)c(Cl)cc2NC1C (stereo unspecified)", "class.name": "no (0)"}
{"compound": "C#CC[C@H](c1nc2cc(Cl)ccc2c(=O)n1Nc1ccccc1)N(CCCN)C(=O)c1cccc(Cl)c1F", "class.name": "yes (1)"}
{"compound": "c1ccc2c(CCNc3ccc(Nc4ccncc4)cc3)c[nH]c2c1", "class.name": "yes (1)"}
{"compound": "O=C(c1ccc(C(=O)N2CCC(N3CCCC3)CC2)c(Nc2ccccc2)c1)N1CCC(N2CCCC2)CC1", "class.name": "no (0)"}

Field: outcome | Entry: CC1(O)CC(c2nc(-c3ccc4ccc(-c5ccccc5)nc4c3)c3c(N)nccn23)C1 (stereo unspecified) no (0)

Field: outcome | Entry: `c1ccc(CNc2nc(NCc3ccccc3)c3ccccc3n2)cc1` yes (1)

Field: outcome | Entry: `O=C(/C=C/C#Cc1cccc(NS(=O)(=O)c2ccccc2)c1)NO` yes (1)

Field: outcome | Entry: `Cc1c(CN2CCN(S(C)(=O)=O)CC2)sc2c(N3CCOCC3)nc(-c3cnc(N)nc3)nc12` yes (1)

Field: outcome | Entry: `NC(=O)c1noc([C@H](CCCC2CCCCC2)CC(=O)NO)n1` yes (1)

Field: outcome | Entry: `CC(C)CNc1ccnc(NCc2csc(-c3ccccc3)n2)n1` yes (1)

Field: outcome | Entry: CCC(C)n1ncn(-c2ccc(N3CCN(c4ccc(OC[C@H]5CO[C@](Cn6cncn6)(c6ccc(Cl)cc6Cl)O5)cc4)CC3)cc2)c1=O (stereo partly specified) yes (1)

Field: outcome | Entry: `CCS(=O)(=O)c1cccc(-c2cc(C(=O)NC3CCN(C)CC3)c(C)c3[nH]c4ncc(C)cc4c23)c1` yes (1)

Field: outcome | Entry: `CN(C)c1ccc(C(=C2C=CC(=[N+](C)C)C=C2)c2ccc(N(C)C)cc2)cc1` yes (1)

Field: outcome | Entry: `CN1CC(=O)NC1=NC(=O)Nc1cccc(Cl)c1` no (0)

----------
I'd be grateful if you could share measured activation for these entries.
Target: Cellular tumor antigen p53 (Homo sapiens) (UniProt P04637)
Sequence (P04637 whole entry, looked up): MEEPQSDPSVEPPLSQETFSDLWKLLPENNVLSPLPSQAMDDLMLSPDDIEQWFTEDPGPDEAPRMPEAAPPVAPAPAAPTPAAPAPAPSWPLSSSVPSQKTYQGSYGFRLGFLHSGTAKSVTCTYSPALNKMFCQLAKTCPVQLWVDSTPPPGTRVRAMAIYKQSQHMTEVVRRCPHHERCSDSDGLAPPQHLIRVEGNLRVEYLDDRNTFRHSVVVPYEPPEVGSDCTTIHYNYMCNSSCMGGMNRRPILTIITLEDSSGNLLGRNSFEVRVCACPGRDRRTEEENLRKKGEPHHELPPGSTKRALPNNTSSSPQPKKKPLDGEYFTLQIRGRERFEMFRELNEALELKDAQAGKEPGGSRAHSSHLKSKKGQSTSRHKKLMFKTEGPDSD
Test: Primary qHTS for small molecule compounds that upregulate eGFP-tagged delta133p53alpha (in N-terminal) cells. (AID 2060322);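 note: cells pre-induced with doxycycline then dosed without doxycycline; 0% = DMSO vehicle and 100% = reference activator; nearly all actives have a fitted effect of over 75% in size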
Details: NCI-H358 eGFP-delta133p53alpha fluorescence, 24 h; hits give high values
Text: Assay Development and Screening Technology National Center for Advancing Translational Sciences (NCATS), National Institute of Health (NIH), Rockville, Maryland Cellular senescence (CS) is one of the hallmarks of aging and age-related diseases. […] Here we report the development and validation of a cell-based quantitative high throughput screening (qHTS) assay in 1,536-well format. […]
Records with an inconclusive call do not appear. Peptide text beside a SMILES is read from it.
Answers are plain numbers, in %.

Look over these answered cases.
{"compound": "N#Cc1ccc2ncnc(NCCc3ccccc3)c2c1", "activation (%)": -3.57}
{"compound": "CC1(C)CC2C(O)C3=C(CC(C)(O)C2C1)C(=O)OC3O (centres undefined)", "activation (%)": 1.79}
{"compound": "Oc1cn2c(n1)Nc1ccc(Cl)c(Cl)c1C2", "activation (%)": -8.37}
{"compound": "C[C@@H]([C@@H](O)c1ccc(O)cc1)N1CCC(O)(c2ccccc2)CC1", "activation (%)": 5.25}
{"compound": "CC1NC(=O)CNC(=O)C(C(C)C)NC(=O)C2CCCN2C(=O)C(C(C)C)NC(=O)C(Cc2c[nH]c3ccccc23)NC1=O (centres undefined) (cyclo(GAWVPV); configuration not given here)", "activation (%)": 3.57}

Provide the reported activation of each entry below, same order.
1. O=C(Cc1c(F)cccc1F)Nc1cc(OCc2ccc(Cl)cc2)ccn1
2. C=C1C[C@@]2(O)O[C@@]3(C[C@H]2C(C)C)[C@@H](C)CC[C@@H]13
3. C[C@@H]1O[C@@H](OC2C(O[C@H]3[C@H](O[C@H]4CC[C@@]5(C)C(CC[C@]6(C)C5CC=C5C7CC(C)(C)CC(O)[C@]7(C)CC[C@]56C)C4(C)C)O[C@H](C(=O)O)[C@@H](O)[C@@H]3O)OC(CO)C(O)C2O)[C@H](O)[C@H](O)[C@H]1O (some centres undefined)
4. C/C=C/C=C/C=C/C(=O)OC1C=C2C(O)OC(=O)[C@]2(O)[C@@]2(C)CCCC(C)(C)[C@H]12 (some centres undefined)

15.7
3.34
-6.11
-2.29

----------
Target: Cellular tumor antigen p53 (Homo sapiens) (UniProt P04637)
Experiment: Primary qHTS for small molecule compounds that upregulate eGFP-tagged delta133p53alpha (in N-terminal) cells. (AID 2060322);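 note: cells pre-induced with doxycycline then dosed without doxycycline; 0% = DMSO vehicle and 100% = reference activator; nearly all actives have a fitted effect of over 75% in size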
Details: NCI-H358 eGFP-delta133p53alpha fluorescence, 24 h; hits give high values
Text: Assay Development and Screening Technology National Center for Advancing Translational Sciences (NCATS), National Institute of Health (NIH), Rockville, Maryland Cellular senescence (CS) is one of the hallmarks of aging and age-related diseases. […] Here we report the development and validation of a cell-based quantitative high throughput screening (qHTS) assay in 1,536-well format. […]
Inconclusive results are not listed. Square brackets hold non-standard residues; d marks the D form. Peptide text beside a SMILES is read from it.
I'd be grateful if you could share measured activation for these entries.
One number for each entry, in %.

Look over these answered cases.
{"compound": "NCc1ccccc1Sc1ccccc1CO", "numeric.result": 15.3}
{"compound": "CC1(C)CC[C@]2(C(=O)O[C@@H]3O[C@H](CO)[C@@H](O)[C@H](O)[C@H]3O)CC[C@]3(C)C(=CCC4[C@@]5(C)CC[C@H](O[C@H]6O[C@H](CO)[C@@H](O)[C@H](O[C@@H]7O[C@H](CO)[C@@H](O)[C@H](O)[C@H]7O)[C@H]6O)C(C)(C)C5CC[C@]43C)[C@@H]2C1 (stereo partly drawn)", "numeric.result": 15.3}

Kindly consider the entry below.
// activation value for CC(=O)N[C@H](Cc1ccc(O)cc1)C(=O)N[C@H](CCCN=C(N)N)C(=O)N[C@H](Cc1ccccc1)C(N)=O (Ac-[dY]-[dR]-[dF]-NH2) : -15.7

----------
target: Aldehyde dehydrogenase 1A1 (Homo sapiens); test: qHTS for Inhibitors of the Aldehyde Dehydrogenase Family (ALDH1A1) Confirmatory screens (AID 2061316); details: ALDH inhibition qHTS; series mostly up to 47.3 µM; note: nearly all actives have a fitted effect of over 65% in size
Results filed as inconclusive are left out. Calls of active or inactive are those of the source. Calls follow the shape of the dose curve; as a rule, active = well fitted inhibition curve with a large enough effect; inconclusive = small, poorly fitted or top-dose-only effect; inactive = no such curve, though single readings can be large or run the other way.
One label from this list, please: yes (1) = active, no (0) = inactive

Solved entries:
{"molecule": "O=C(O)c1ccc2c(c1)C(=O)N([C@H](Cc1ccc(F)cc1)C(=O)O)C2=O", "target.or.system": "Aldehyde dehydrogenase 1A1 (Homo sapiens)", "class.name": "no (0)"}
{"molecule": "CCOc1ccc(Cc2nc(-c3c(C)nc4ccccn34)cs2)cc1", "target.or.system": "Aldehyde dehydrogenase 1A1 (Homo sapiens)", "class.name": "yes (1)"}
{"molecule": "COc1cc(/C=C/c2cc(O)cc(O[C@@H]3O[C@H](CO)[C@@H](O)[C@H](O)[C@H]3O)c2)ccc1O", "target.or.system": "Aldehyde dehydrogenase 1A1 (Homo sapiens)", "class.name": "no (0)"}

Field: outcome | Entry: `Cc1cc2c(s1)c1cnn(Cc3ccc(-n4cncn4)cc3)c(=O)c1n2C` yes (1)

Field: outcome | Entry: `O=C(CCCCCCNC(=O)c1cnc(N(c2ccccc2)c2ccccc2)nc1)NO` no (0)

Field: outcome | Entry: `OC[C@H]1O[C@@H](n2cnc3c2NC=NC[C@H]3O)C[C@@H]1O` no (0)

Field: outcome | Entry: `Cc1ccc(CCNc2ncnc3onc(-c4ccc(Cl)cc4)c23)cc1` no (0)

Field: outcome | Entry: `O=C(/C=C/c1ccc2c(c1)OCO2)Nc1cccc([S+](=O)([O-])Nc2ccccc2F)c1` no (0)
